Assay: Half life in human liver microsomes
Type: ADME, Microsome
observation.type: half-life (min)

compound	observation.type	experimental.value
O=C(c1cc2ccc(F)cc2[nH]1)N1C[C@]2(CCN(C3CCNC3)C2)c2ccccc21 (stereo partly drawn)	half-life	52
C[C@@H]1CCC(N2CC[C@]3(CN(C(=O)c4cc5ccc(F)cc5[nH]4)c4ccccc43)C2)CN1 (stereo partly drawn)	half-life	44
O=C(c1cc2cc(Cl)ccc2[nH]1)N1C[C@]2(CCN(C3CCNC3)C2)c2ccccc21 (stereo partly drawn)	half-life	60

====

Assay: Aqueous solubility of compound at pH 6.5
Type: physicochemical
observation.type: solubility (µM)

A. O=C(c1cc2cc(Cl)ccc2[nH]1)N1C[C@]2(CCN(C3CCNC3)C2)c2ccccc21 (stereo partly drawn)
B. O=C(c1cc2ccc(F)cc2[nH]1)N1C[C@]2(CCN(C3CCNC3)C2)c2ccccc21 (stereo partly drawn)
Ask: Choose between A and B : whose measured solubility value is numerically larger? Please respond with the label that marks your chosen entry.
Result: B
(B: 7.8 µM, A: 5.2 µM)
